- protocol_notes: Unbound intrinsic clearance in mouse liver microsomes at 1 uM measured up to 4 hrs by LC-MS analysis
- Assay type: ADME, Microsome
Quick reference: CL free of the listed items.

Study these solved cases before continuing.
compound | CL free
Cc1cc(Nc2ccc(S(F)(F)(F)(F)F)cc2)n2nc(C(F)(F)F)nc2n1 | < 25 µL/min/mg
Cc1c(Cc2ccc(C(F)(F)F)nc2)c[nH]c1C(=O)NC(C)c1cn[nH]c1 (stereo in doubt; form 1) | 52 µL/min/mg
Cc1cc(C(C)NC(=O)c2[nH]cc(Cc3ccc(C(F)(F)F)nc3)c2C)no1 (stereo in doubt; form 1) | 111 µL/min/mg
Cc1c(C2(c3ccc(C(F)(F)F)nc3)CC2)c[nH]c1C(=O)NC(C)c1nc[nH]n1 (stereo in doubt; form 1) | 17 µL/min/mg

Now examine the next entry.
INPUT: Quick one: CL free of Cc1c(Cc2ccc(C(F)(F)F)nc2)c[nH]c1C(=O)NC(C)c1cnn(C)c1 (stereo in doubt; form 1) ?
OUTPUT: 75 µL/min/mg
